- method.description: Biodistribution of radiometal-DOTA-BBN conjugates in CF1 normal mice
- test.settings: 1 hour post-injection
measured.attribute: Avg % ID/gm, Spleen (% ID/gm)
Give the number; % ID/gm is assumed, so skip it.

Query: Write down Avg % ID/gm, Spleen measured for item CSCC[C@H](NC(=O)[C@H](CC(C)C)NC(=O)[C@H](Cc1c[nH]cn1)NC(=O)CNC(=O)[C@@H](NC(=O)[C@H](C)NC(=O)[C@H](Cc1c[nH]c2ccccc12)NC(=O)[C@H](CCC(N)=O)NC(=O)CCCCNC(=O)CN1CCN(CC(=O)O)CCN(CC(=O)O)CCN(CC(=O)O)CC1)C(C)C)C(N)=O [149Pm-DOTA-5-Ava-BBN[7-14]NH2]
Reply: 2.37

Query: Tell me measured Avg % ID/gm, Spleen for CSCC[C@H](NC(=O)[C@H](CC(C)C)NC(=O)[C@H](Cc1cnc[nH]1)NC(=O)CNC(=O)[C@@H](NC(=O)[C@H](C)NC(=O)[C@H](Cc1c[nH]c2ccccc12)NC(=O)[C@H](CCC(N)=O)NC(=O)CCCCCCCNC(=O)CN1CCN(CC(=O)O)CCN(CC(=O)O)CCN(CC(=O)O)CC1)C(C)C)C(N)=O [177Lu-DOTA-8-Aoc-BBN[7-14]NH2] [metal not drawn] please.
Reply: 1.23

###

- method.description: Biodistribution of radiometal-DOTA-BBN conjugates in CF1 normal mice
- test.settings: 1 hour post-injection
Give 1.0 when the value for Avg % ID, Lung is at least 0.06 % ID. Give 0.0 when it is less.

Some entries whose results are on file:
1) CSCC[C@H](NC(=O)[C@H](CC(C)C)NC(=O)[C@H](Cc1c[nH]cn1)NC(=O)CNC(=O)[C@@H](NC(=O)[C@H](C)NC(=O)[C@H](Cc1c[nH]c2ccccc12)NC(=O)[C@H](CCC(N)=O)NC(=O)CCCCCCCCCCNC(=O)CN1CCN(CC(=O)O)CCN(CC(=O)O)CCN(CC(=O)O)CC1)C(C)C)C(N)=O [111In-DOTA-11-Aun-BBN[7-14]NH2] [metal not drawn] = 1.0
2) CSCC[C@H](NC(=O)[C@H](CC(C)C)NC(=O)[C@H](Cc1cnc[nH]1)NC(=O)CNC(=O)[C@@H](NC(=O)[C@H](C)NC(=O)[C@H](Cc1c[nH]c2ccccc12)NC(=O)[C@H](CCC(N)=O)NC(=O)CCNC(=O)CN1CCN(CC(=O)O)CCN(CC(=O)O)CCN(CC(=O)O)CC1)C(C)C)C(N)=O [177Lu-DOTA-β-Ala-BBN[7-14]NH2] [metal not drawn] = 0.0

Query: Item CSCC[C@H](NC(=O)[C@H](CC(C)C)NC(=O)[C@H](Cc1cnc[nH]1)NC(=O)CNC(=O)[C@@H](NC(=O)[C@H](C)NC(=O)[C@H](Cc1c[nH]c2ccccc12)NC(=O)[C@H](CCC(N)=O)NC(=O)CN1CCN(CC(=O)O)CCN(CC(=O)O)CCN(CC(=O)O)CC1)C(C)C)C(N)=O [149Pm-DOTA-0-BBN[7-14]NH2] with Avg % ID, Lung of 0.06 % ID or above?
Reply: 0.0

Query: Item CSCC[C@H](NC(=O)[C@H](CC(C)C)NC(=O)[C@H](Cc1c[nH]cn1)NC(=O)CNC(=O)[C@@H](NC(=O)[C@H](C)NC(=O)[C@H](Cc1c[nH]c2ccccc12)NC(=O)[C@H](CCC(N)=O)NC(=O)CCCCCCCCCCNC(=O)CN1CCN(CC(=O)O)CCN(CC(=O)O)CCN(CC(=O)O)CC1)C(C)C)C(N)=O [177Lu-DOTA-11-Aun-BBN[7-14]NH2] [metal not drawn] with Avg % ID, Lung of 0.06 % ID or above?
Reply: 1.0

Query: Can CSCC[C@H](NC(=O)[C@H](CC(C)C)NC(=O)[C@H](Cc1c[nH]cn1)NC(=O)CNC(=O)[C@@H](NC(=O)[C@H](C)NC(=O)[C@H](Cc1c[nH]c2ccccc12)NC(=O)[C@H](CCC(N)=O)NC(=O)CCCCNC(=O)CN1CCN(CC(=O)O)CCN(CC(=O)O)CCN(CC(=O)O)CC1)C(C)C)C(N)=O [149Pm-DOTA-5-Ava-BBN[7-14]NH2] be said to have Avg % ID, Lung at or above 0.06 % ID?
Reply: 1.0

Query: Kindly determine if Avg % ID, Lung recorded for CSCC[C@H](NC(=O)[C@H](CC(C)C)NC(=O)[C@H](Cc1cnc[nH]1)NC(=O)CNC(=O)[C@@H](NC(=O)[C@H](C)NC(=O)[C@H](Cc1c[nH]c2ccccc12)NC(=O)[C@H](CCC(N)=O)NC(=O)CCCCCCCNC(=O)CN1CCN(CC(=O)O)CCN(CC(=O)O)CCN(CC(=O)O)CC1)C(C)C)C(N)=O [149Pm-DOTA-8-Aoc-BBN[7-14]NH2] is above or exactly 0.06 % ID.
Reply: 0.0

Query: Does the reported Avg % ID, Lung for CSCC[C@H](NC(=O)[C@H](CC(C)C)NC(=O)[C@H](Cc1c[nH]cn1)NC(=O)CNC(=O)[C@@H](NC(=O)[C@H](C)NC(=O)[C@H](Cc1c[nH]c2ccccc12)NC(=O)[C@H](CCC(N)=O)NC(=O)CCCCNC(=O)CN1CCN(CC(=O)O)CCN(CC(=O)O)CCN(CC(=O)O)CC1)C(C)C)C(N)=O [111In-DOTA-5-Ava-BBN[7-14]NH2] [metal not drawn] fall at or above the 0.06 % ID mark?
Reply: 0.0
